The reported measurements were obtained from patent US9409876B2.

assay: Pharmacokinetics after oral gavage; assay type: in vivo, rat; settings: Sprague-Dawley, rat, plasma, po, 10 mg/kg, oral administration, 5 min, Rat2; read-out: plasma level
experimental_endpoint: concentration at 5 min (ng/mL)
Provide only the numeric value, understood in ng/mL.

Please report the recorded concentration at 5 min for COc1ccccc1CN(C(=O)CC(C)C)[C@@H](C(=O)NC[C@H]1CCCO1)c1ccc(C)cc1 [Compound 8 (R,R)] .
2.2

---

experiment: Pharmacokinetics after IV administration, brain penetration assessment; format: in vivo, rat; conditions: Sprague-Dawley, rat; IV 7.5 mg/kg, Brain
experimental_endpoint: Tmax (min)
Provide only the numeric value, understood in min.

Please report the recorded Tmax for COc1ccccc1CN(C(=O)CC(C)C)[C@@H](C(=O)NC[C@H]1CCCO1)c1ccc(C)cc1 [Compound 8 (R,R)] .
15

---

test: Pharmacokinetics after IV administration, brain penetration assessment; type: in vivo, rat; conditions: Sprague-Dawley, rat, plasma, iv, 7.5 mg/kg, Time 15, R3, read-out: Plasma level
experimental_endpoint: concentration at 15 min
Don't forget the unit after the value.

Please report the recorded concentration at 15 min for COc1ccccc1CN(C(=O)CC(C)C)[C@@H](C(=O)NC[C@H]1CCCO1)c1ccc(C)cc1 [Compound 8 (R,R)] .
1470 ng/mL

---

Overview of reported pIC50 across a group of compounds:
target: BKB1 receptors (Homo sapiens); construct: Human (IMR-90) lung fibroblast cells expressing native BKB1 receptors; endogenous in cells; experiment: Calcium Mobilization Assay (FLIPR), IMR-90 cells, BKB1; details: IL-1 induced IMR-90 cells, agonist desArg10-kallidin (DAKD)
Sequence (P46663 whole entry): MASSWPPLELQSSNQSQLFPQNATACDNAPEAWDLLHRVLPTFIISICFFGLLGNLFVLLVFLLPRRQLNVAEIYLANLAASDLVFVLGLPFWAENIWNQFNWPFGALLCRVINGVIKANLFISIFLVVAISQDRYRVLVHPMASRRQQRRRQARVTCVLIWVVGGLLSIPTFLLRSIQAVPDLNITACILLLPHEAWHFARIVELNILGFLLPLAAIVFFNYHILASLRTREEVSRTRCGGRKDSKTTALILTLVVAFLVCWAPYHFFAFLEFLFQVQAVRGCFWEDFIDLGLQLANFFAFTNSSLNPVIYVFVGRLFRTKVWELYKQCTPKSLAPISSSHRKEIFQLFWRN
For clarity, pIC50 is expressed as the negative log10 of concentration in mol/L.

- compound: "CCC(CC)CN(C(=O)C1CCCCC1)C(C(=O)NCC1CCCO1)c1ccc(C)cc1 (stereo not shown)"
  pIC50: 4.85
- compound: "COc1ccccc1CN(C(=O)c1ccc(C)cc1)C(C(=O)NCC1CCCO1)c1ccc(C)cc1 (stereo not shown)"
  pIC50: 5.21
- compound: "Cc1ccc(C(C(=O)NCC2CCCO2)N(CC2CCCCC2)C(=O)CN(C)C)cc1 (stereo not shown)"
  pIC50: 5.96

Now look at this one.
Please report the recorded pIC50 for CCC(=O)N(Cc1ccccc1OC)C(C(=O)NCC1CCCO1)c1ccc(C)cc1 (stereo not shown) .
4.88

---

test: Pharmacokinetics after oral gavage; assay type: in vivo, rat; conditions: Sprague-Dawley, rat, plasma, po, 10 mg/kg, oral administration, 240 min, Rat2; read-out: plasma level
experimental_endpoint: concentration at 240 min (ng/mL)
Provide only the numeric value, understood in ng/mL.

Please report the recorded concentration at 240 min for COc1ccccc1CN(C(=O)CC(C)C)[C@@H](C(=O)NC[C@H]1CCCO1)c1ccc(C)cc1 [Compound 8 (R,R)] .
1.1

---

assay: Metabolic stability in liver microsomes with NADPH; type: in vitro ADME; settings: Wistar, rat, microsomes 0.5 mg/ml, pH 7.4, with NADPH, read-out: intrinsic clearance (CLint)
experimental_endpoint: microsomal CLint at 1 μM (µL/min/mg)
Provide only the numeric value, understood in µL/min/mg.

Please report the recorded microsomal CLint at 1 μM for COc1ccccc1CN(C(=O)CC(C)C)[C@@H](C(=O)NC[C@H]1CCCO1)c1ccc(C)cc1 [Compound 8 (R,R)] .
851

---

target: BKB1 receptors (Homo sapiens); construct: Human (IMR-90) lung fibroblast cells expressing native BKB1 receptors; endogenous in cells; assay: Calcium Mobilization Assay (FLIPR), IMR-90 cells, BKB1; conditions: IL-1 induced IMR-90 cells, agonist desArg10-kallidin (DAKD)
experimental_endpoint: pIC50
For clarity, pIC50 is expressed as the negative log10 of concentration in mol/L.

- compound: "Cc1ccc(C(C(=O)NCC2CCCO2)N(CC2CCCC2)C(=O)Cc2c[nH]cn2)cc1 (stereo not shown)"
  pIC50: 6.10
- compound: "COc1ccccc1CN(C(=O)Cn1nnc2ccccc21)[C@@H](C(=O)NC[C@H]1CCCO1)c1ccc(C)cc1 [Compound 1 (R,R)]"
  pIC50: 7.37
- compound: "Cc1ccc(C(C(=O)NCC2CCCO2)N(Cc2cccnc2)C(=O)Cc2ccccc2C)cc1 (stereo not shown)"
  pIC50: 4.93

Please report the recorded pIC50 for CCC(CC)CN(C(=O)Cc1ccccc1C)C(C(=O)NCC1CCCO1)c1ccc(C)cc1 (stereo not shown) .
5.37

Please answer likewise for COc1ccccc1CN(C(=O)Cc1ccc(F)cc1)C(C(=O)NCC1CCCO1)c1ccc(C)cc1 (stereo not shown)
5.46

Please answer likewise for CCCCC(=O)N(Cc1ccccc1OC)C(C(=O)NCC1CCCO1)c1ccc(C)cc1 (stereo not shown)
6.52

Please answer likewise for COc1ccccc1CN(C(=O)Cn1ccc2ccccc21)C(C(=O)NCC1CCCO1)c1ccc(C)cc1 (stereo not shown)
6.57

Please answer likewise for COc1ccccc1CN(C(=O)CC(C)C)C(C(=O)NCC1CCCO1)c1ccc(C)cc1 (stereo not shown)
6.38

Please answer likewise for COc1ccccc1CN(C(=O)C1CCC(F)(F)CC1)C(C(=O)NCC1CCCO1)c1ccc(C)cc1 (stereo not shown)
5.08

Please answer likewise for Cc1ccc(C(C(=O)NCC2CCCO2)N(Cc2cccc(C)c2)C(=O)CN(C)C)cc1 (stereo not shown)
5.77

Please answer likewise for COc1ccccc1CN(C(=O)Cn1ccnn1)C(C(=O)NCC1CCCO1)c1ccc(C)cc1 (stereo not shown)
7.17

Please answer likewise for Cc1ccc(C(C(=O)NCC2CCCO2)N(Cc2csc3ccccc23)C(=O)CN(C)C)cc1 (stereo not shown)
5.92

Please answer likewise for CCC(CC)CN(C(=O)Cc1ccc(F)cc1)C(C(=O)NCC1CCCO1)c1ccc(C)cc1 (stereo not shown)
5.02

Please answer likewise for COc1ccccc1CN(C(=O)CC(C)C)[C@@H](C(=O)NC[C@H]1CCCO1)c1ccc(C)cc1 [Compound 8 (R,R)]
6.87

Please answer likewise for COc1ccccc1CN(C(=O)c1ccc(O)cc1)C(C(=O)NCC1CCCO1)c1ccc(C)cc1 (stereo not shown)
6.00

Please answer likewise for Cc1ccc(C(C(=O)NCC2CCCO2)N(CC2CCCCC2)C(=O)Cc2c[nH]cn2)cc1 (stereo not shown)
4.86

---

assay: Pharmacokinetics after oral gavage; format: in vivo, rat; conditions: Sprague-Dawley, rat, plasma, po, 10 mg/kg, 10 mg/kg oral gavage, Rat 1
experimental_endpoint: MRT last (h)
Provide only the numeric value, understood in h.

Please report the recorded MRT last for COc1ccccc1CN(C(=O)CC(C)C)[C@@H](C(=O)NC[C@H]1CCCO1)c1ccc(C)cc1 [Compound 8 (R,R)] .
1.69

---

experiment: Pharmacokinetics after IV administration, brain penetration assessment; assay type: in vivo, rat; conditions: Sprague-Dawley, rat, plasma, iv, 7.5 mg/kg, Time 240, Average, read-out: Plasma level
experimental_endpoint: concentration at 240 min (ng/mL)
Provide only the numeric value, understood in ng/mL.

Please report the recorded concentration at 240 min for COc1ccccc1CN(C(=O)CC(C)C)[C@@H](C(=O)NC[C@H]1CCCO1)c1ccc(C)cc1 [Compound 8 (R,R)] .
4.2

---

test: Pharmacokinetics after oral gavage; type: in vivo, rat; conditions: Sprague-Dawley, rat, plasma, oral, 10 mg/kg, 10 mg/kg oral gavage, Rat 3; read-out: Clast
experimental_endpoint: concentration at 120 min (ng/mL)
Provide only the numeric value, understood in ng/mL.

Please report the recorded concentration at 120 min for COc1ccccc1CN(C(=O)CC(C)C)[C@@H](C(=O)NC[C@H]1CCCO1)c1ccc(C)cc1 [Compound 8 (R,R)] .
1

---

Experiment: Pharmacokinetics after oral gavage
Assay type: in vivo, rat
Conditions: Sprague-Dawley, rat, plasma, po, 10 mg/kg, 10 mg/kg oral gavage, Rat 1; read-out: T½
Method: In three of the rats tested in Example 56, indicated as R1, […], also the pharmacokinetic profile of compound 8 (R,R) was evaluated. The results are summarised in Tables III to IV and in FIGS. 1-4. FIGS. 1 and 2 show the plasma concentrations, expressed in ng/ml, of compound 8 (R,R) over time after oral administration for each of the three subjects tested (FIG. 1) and as an average (FIG. 2). […] In tables IV and VI, LLOQ means lower limit of quantification.
experimental_endpoint: half-life (h)
Provide only the numeric value, understood in h.

Please report the recorded half-life for COc1ccccc1CN(C(=O)CC(C)C)[C@@H](C(=O)NC[C@H]1CCCO1)c1ccc(C)cc1 [Compound 8 (R,R)] .
5.75

---

experiment: Pharmacokinetics after oral gavage; format: in vivo, rat; settings: Sprague-Dawley (SD), rat, plasma, po, 10 mg/kg, oral administration, 30 min, Average; read-out: plasma level
experimental_endpoint: concentration at 30 min (ng/mL)
Provide only the numeric value, understood in ng/mL.

Please report the recorded concentration at 30 min for COc1ccccc1CN(C(=O)CC(C)C)[C@@H](C(=O)NC[C@H]1CCCO1)c1ccc(C)cc1 [Compound 8 (R,R)] .
2
